These measurements were taken from ChEMBL document CHEMBL4257444.

assay.system: Acetylcholinesterase (Electrophorus electricus)
Sequence (O42275 whole entry): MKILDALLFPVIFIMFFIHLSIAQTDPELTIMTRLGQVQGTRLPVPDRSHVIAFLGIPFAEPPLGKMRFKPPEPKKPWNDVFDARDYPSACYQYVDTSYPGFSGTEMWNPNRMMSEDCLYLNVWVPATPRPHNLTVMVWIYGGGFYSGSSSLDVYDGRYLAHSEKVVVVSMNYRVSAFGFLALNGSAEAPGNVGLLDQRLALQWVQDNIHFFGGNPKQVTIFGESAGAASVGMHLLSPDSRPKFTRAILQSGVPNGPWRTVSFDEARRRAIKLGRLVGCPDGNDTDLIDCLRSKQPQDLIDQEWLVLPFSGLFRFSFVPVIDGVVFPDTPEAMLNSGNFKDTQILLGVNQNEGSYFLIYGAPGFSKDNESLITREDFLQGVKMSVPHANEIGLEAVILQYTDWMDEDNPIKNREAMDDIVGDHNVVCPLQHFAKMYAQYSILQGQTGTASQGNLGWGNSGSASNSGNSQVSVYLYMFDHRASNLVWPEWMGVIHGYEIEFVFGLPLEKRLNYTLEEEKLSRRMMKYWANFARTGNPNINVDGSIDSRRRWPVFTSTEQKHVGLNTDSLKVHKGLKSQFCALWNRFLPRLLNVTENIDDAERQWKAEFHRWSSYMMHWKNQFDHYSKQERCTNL
pIC50: −log10 of the molar value.
Decide using pIC50: a value greater than or equal to 9 is Criterion met, a smaller one is Criterion not met.

Query string: Is pIC50 at least 9? Consider BrCCCCCCCNc1c2c(nc3ccccc13)CCCC2
Result string: Criterion met

Query string: Could you do the same for CC(C)(CN1C(=O)c2cccc3cccc(c23)C1=O)C[N+](C)(C)CCCCCCCCC[N+](C)(C)CC#CCOC1=NOCC1 , please?
Result string: Criterion not met

Query string: Could you do the same for C[N+](C)(CC#CCOc1ccon1)CCCCCCCC[N+](C)(C)CCCN1C(=O)c2ccccc2C1=O , please?
Result string: Criterion not met

Query string: Could you do the same for c1ccc2c(NCCCCCCCNc3c4c(nc5ccccc35)CCCC4)c3c(nc2c1)CCCC3 , please?
Result string: Criterion met

====

assay.system: Cholinesterase (Equus caballus)
Sequence (P81908 whole entry): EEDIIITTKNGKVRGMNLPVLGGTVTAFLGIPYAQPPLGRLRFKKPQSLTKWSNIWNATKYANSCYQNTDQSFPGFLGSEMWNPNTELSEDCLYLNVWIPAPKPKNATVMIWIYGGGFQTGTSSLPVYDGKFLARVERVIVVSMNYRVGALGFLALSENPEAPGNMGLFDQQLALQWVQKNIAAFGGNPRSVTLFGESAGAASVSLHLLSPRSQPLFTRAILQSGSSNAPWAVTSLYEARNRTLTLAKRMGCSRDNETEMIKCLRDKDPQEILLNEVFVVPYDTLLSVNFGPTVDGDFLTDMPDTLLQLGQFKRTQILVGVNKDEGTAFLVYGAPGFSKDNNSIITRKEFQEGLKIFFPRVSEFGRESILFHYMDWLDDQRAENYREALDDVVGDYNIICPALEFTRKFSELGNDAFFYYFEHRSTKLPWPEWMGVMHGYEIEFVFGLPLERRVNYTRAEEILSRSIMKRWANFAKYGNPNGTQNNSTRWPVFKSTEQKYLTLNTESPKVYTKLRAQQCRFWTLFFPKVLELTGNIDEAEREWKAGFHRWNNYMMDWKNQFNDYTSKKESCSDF
readout.name: IC50
Form entry: enter the amount, then its unit.

Worked examples follow.
test.smiles	IC50
c1ccc2c(CCCCCCCCCCNc3c4c(nc5ccccc35)CCCC4)c3c(nc2c1)CCCC3	0.457 nM
c1ccc2c(NCCCCCCCNc3c4c(nc5ccccc35)CCCC4)c3c(nc2c1)CCCC3	0.724 nM

Query string: # returns recorded IC50 (system: Cholinesterase (Equus caballus)) for BrCCCCCCCNc1c2c(nc3ccccc13)CCCC2
Result string: 263 nM

Query string: Could you do the same for C[N+](C)(CC#CCOC1=NOCC1)CCCCCCCCCCNc1c2c(nc3ccccc13)CCCC2 , please?
Result string: 1.78 nM

Query string: Could you do the same for C[N+](C)(CC#CCOc1ccon1)CCCC[N+](C)(C)CCCN1C(=O)c2ccccc2C1=O , please?
Result string: 85100 nM

Query string: Could you do the same for C[N+](C)(CC#CCOc1ccon1)CCCCCCCC[N+](C)(C)CCCN1C(=O)c2ccccc2C1=O , please?
Result string: 7940 nM

Query string: Could you do the same for CC(C)(CN1C(=O)c2cccc3cccc(c23)C1=O)C[N+](C)(C)CCCCCCCCC[N+](C)(C)CC#CCOC1=NOCC1 , please?
Result string: 324 nM

Query string: Could you do the same for CC(C)(CN1C(=O)c2cccc3cccc(c23)C1=O)C[N+](C)(C)CCCCCCC[N+](C)(C)CC#CCOC1=NOCC1 , please?
Result string: 204 nM
